Each item that follows carries a reported IC50.
Target: Sucrase-isomaltase, intestinal (Homo sapiens)
Sequence (P14410 2-1007 limits assumed): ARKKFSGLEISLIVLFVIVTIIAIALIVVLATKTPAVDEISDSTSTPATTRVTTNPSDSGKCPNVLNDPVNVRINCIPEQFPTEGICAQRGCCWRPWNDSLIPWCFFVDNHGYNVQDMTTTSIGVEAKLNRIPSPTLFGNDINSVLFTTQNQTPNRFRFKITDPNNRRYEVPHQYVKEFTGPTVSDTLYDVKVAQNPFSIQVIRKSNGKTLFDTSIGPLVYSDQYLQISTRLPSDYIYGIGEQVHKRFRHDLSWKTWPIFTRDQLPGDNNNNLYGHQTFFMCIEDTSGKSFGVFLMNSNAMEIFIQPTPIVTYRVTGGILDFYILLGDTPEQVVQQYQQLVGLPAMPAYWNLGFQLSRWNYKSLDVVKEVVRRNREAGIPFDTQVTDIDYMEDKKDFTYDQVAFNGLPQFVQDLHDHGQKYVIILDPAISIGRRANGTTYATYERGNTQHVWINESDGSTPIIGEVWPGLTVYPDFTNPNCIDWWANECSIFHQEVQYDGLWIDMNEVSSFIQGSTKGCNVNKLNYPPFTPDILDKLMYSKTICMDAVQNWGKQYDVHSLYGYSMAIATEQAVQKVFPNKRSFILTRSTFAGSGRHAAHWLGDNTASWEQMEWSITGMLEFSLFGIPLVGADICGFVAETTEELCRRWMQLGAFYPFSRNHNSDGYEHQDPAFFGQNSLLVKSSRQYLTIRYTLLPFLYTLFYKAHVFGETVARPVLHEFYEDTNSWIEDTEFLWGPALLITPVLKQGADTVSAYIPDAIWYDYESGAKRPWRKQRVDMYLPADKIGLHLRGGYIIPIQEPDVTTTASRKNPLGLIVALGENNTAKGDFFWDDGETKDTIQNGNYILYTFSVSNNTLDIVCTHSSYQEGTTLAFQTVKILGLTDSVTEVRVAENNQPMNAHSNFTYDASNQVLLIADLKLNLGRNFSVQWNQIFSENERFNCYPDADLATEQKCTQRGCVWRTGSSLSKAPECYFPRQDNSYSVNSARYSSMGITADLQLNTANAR
Sequence (P14410 1008-1827 limits assumed): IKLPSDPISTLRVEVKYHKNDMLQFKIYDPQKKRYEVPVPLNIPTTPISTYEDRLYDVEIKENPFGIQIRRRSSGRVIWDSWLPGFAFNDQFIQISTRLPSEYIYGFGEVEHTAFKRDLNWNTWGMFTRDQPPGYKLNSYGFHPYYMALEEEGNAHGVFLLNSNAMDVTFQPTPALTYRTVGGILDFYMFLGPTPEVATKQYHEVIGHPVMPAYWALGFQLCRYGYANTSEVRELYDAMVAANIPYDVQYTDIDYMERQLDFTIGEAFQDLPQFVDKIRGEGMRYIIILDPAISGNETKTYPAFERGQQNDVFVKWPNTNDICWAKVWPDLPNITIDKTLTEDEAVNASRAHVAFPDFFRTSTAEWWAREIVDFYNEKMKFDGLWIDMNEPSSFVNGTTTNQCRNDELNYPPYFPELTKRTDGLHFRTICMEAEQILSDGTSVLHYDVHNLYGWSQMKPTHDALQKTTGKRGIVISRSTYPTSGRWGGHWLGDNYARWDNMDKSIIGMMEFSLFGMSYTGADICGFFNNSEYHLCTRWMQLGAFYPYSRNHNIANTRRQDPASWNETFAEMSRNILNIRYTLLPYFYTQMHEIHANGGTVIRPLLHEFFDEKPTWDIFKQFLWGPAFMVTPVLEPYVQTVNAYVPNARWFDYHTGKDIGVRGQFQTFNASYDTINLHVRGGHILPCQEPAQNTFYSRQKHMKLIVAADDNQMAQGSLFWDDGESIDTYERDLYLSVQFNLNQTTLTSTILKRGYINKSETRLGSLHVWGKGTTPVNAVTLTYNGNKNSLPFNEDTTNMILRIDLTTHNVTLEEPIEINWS

Previously resolved entries follow.
[[record]]
compound = "C=C1C[C@H]2[C@@](C)(C(=O)C(O)=C3C(C)(C)C(=O)CC[C@@]32C)[C@@H]2C(=O)O[C@@](C)(C(=O)OC)C(=O)[C@@]12C [TERRETONIN A]"
result = "> 212 µM"

[[record]]
compound = "COc1cc(-c2cc3c(c(=O)o2)C[C@]2(O)[C@@]4(C)C(=O)C=CC(C)(C)[C@]4(O)CC[C@@]2(C)O3)cc2c1OCO2 [TERRITREM A]"
result = "> 196 µM"


Query: So what IC50 did C=C1C[C@]2(O)[C@@]3(C)CCC(=O)C(C)(C)C3=C(O)C(=O)[C@@]2(C)[C@@H]2C(=O)O[C@@](C)(C(=O)OC)C(=O)[C@@]12C [TERRETONIN] get with Sucrase-isomaltase, intestinal (Homo sapiens)?
Response: > 205 µM

This collection of values is drawn from ChEMBL document CHEMBL1141779.
